- TARGET OR SYSTEM: recombinant guanylate cyclase reporter cell line (Rattus norvegicus, UniProt P19686+P20595)
- Construct: expressed in transfected cells
- Sequence (P20595 whole entry): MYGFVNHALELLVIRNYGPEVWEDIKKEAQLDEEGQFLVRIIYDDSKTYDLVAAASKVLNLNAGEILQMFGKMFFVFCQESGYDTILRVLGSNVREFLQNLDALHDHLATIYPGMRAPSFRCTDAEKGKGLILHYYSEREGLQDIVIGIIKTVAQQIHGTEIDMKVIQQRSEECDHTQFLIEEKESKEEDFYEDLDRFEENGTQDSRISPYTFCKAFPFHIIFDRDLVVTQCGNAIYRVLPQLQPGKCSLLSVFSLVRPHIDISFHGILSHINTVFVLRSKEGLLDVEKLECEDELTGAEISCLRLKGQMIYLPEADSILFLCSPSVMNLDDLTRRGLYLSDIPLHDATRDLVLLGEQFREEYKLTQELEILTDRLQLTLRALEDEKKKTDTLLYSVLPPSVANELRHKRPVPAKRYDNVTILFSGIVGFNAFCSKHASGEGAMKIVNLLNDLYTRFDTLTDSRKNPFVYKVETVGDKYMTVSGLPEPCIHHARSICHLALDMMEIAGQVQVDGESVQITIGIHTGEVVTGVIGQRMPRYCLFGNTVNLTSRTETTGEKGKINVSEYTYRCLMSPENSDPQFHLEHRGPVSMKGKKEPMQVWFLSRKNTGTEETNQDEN
- Sequence (P19686 whole entry): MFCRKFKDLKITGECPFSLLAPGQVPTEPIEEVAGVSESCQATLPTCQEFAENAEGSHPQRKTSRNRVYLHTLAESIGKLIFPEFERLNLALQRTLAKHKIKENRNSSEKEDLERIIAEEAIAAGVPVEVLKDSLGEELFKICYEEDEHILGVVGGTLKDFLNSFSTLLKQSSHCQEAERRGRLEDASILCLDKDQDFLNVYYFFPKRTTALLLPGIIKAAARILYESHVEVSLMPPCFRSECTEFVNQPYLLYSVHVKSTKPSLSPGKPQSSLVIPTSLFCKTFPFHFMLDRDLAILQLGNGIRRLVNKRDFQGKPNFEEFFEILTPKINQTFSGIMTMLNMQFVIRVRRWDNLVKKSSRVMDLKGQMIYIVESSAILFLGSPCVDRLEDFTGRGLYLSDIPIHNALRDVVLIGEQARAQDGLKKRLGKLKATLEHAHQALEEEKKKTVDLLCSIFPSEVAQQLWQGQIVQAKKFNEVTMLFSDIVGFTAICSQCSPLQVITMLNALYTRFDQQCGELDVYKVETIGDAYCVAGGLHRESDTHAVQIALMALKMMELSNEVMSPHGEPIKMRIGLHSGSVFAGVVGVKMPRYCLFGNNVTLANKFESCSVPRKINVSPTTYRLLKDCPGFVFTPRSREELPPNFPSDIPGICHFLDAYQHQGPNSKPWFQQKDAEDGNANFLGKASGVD
- TEST: Action on recombinant guanylate cyclase reporter cell line
- Assay type: cell-based
MEASUREMENT NAME: MEC (minimal effective concentration)

1. O=C1Nc2nc(-c3nn(Cc4ccccc4F)c4ncc(F)cc34)nc(NCCC(F)(F)F)c2C12CCOC2 (stereo not drawn) [Example 100] = 0.3 μm
2. CC1(C)C(=O)Nc2nc(-c3nn(Cc4ccccc4F)c4ncccc34)nc(Nc3ccccc3)c21 [Example 87] = 0.03 μm
3. CC1(C)C(=O)Nc2nc(-c3nn(Cc4ccccc4F)c4ncc(F)cc34)nc(NCCC(F)(F)F)c21 [Example 5] = 0.03 μm
4. CC1(C)C(=O)Nc2nc(-c3nn(Cc4ccccc4F)c4ncc(F)cc34)nc(NCC(O)C(F)(F)F)c21 (single isomer, unassigned) [Example 96-1] = 0.1 μm
5. CCOc1nc(-c2nn(Cc3ccccc3F)c3ncccc23)nc2c1C(C)(C)C(=O)N2 [Example 112] = 0.1 μm
6. CC1(C)C(=O)Nc2nc(-c3nn(Cc4ccccc4F)c4ncccc34)nc(NC[C@H]3CNC(=O)C3)c21 [Example 66] = 0.1 μm
7. CC1(C)C(=O)Nc2nc(-c3nn(Cc4ncccc4F)c4ncc(F)cc34)nc(NCC3CC3)c21 [Example 17] = 0.1 μm
8. CC1(C)C(=O)Nc2nc(-c3nn(Cc4ccccc4F)c4ncccc34)nc(Nc3cccnc3)c21 [Example 65] = 0.1 μm
9. CC1(C)C(=O)Nc2nc(-c3nn(Cc4ccccc4F)c4ncccc34)nc(NCCC(N)=O)c21 [Example 73] = 0.3 μm
10. Cc1nc2c(cc1F)c(-c1nc(NCCC(F)(F)F)c3c(n1)NC(=O)C3(C)C)nn2Cc1ccccc1F [Example 90] = 0.3 μm
11. Cc1ccc(CNc2nc(-c3nn(Cc4ccccc4F)c4ncccc34)nc3c2C(C)(C)C(=O)N3)o1 [Example 41] = 0.01 μm
12. CC1(C)C(=O)Nc2nc(-c3nn(Cc4ccccc4F)c4ncccc34)nc(-n3cc(O)cn3)c21 [Example 26] = 0.03 μm
13. CN1CCN(c2nc(-c3nn(Cc4ccccc4F)c4ncccc34)nc3c2C(C)(C)C(=O)N3)CC1 [Example 70] = 0.03 μm
14. C[C@H](Nc1nc(-c2nn(Cc3ccccc3F)c3ncccc23)nc2c1C(C)(C)C(=O)N2)C(N)=O [Example 79] = 0.1 μm
15. CC1(C)C(=O)Nc2nc(-c3nn(Cc4ccccc4F)c4ncccc34)nc(N3CC(N)C3)c21 [Example 107] = 1 μm
16. CC1(C)C(=O)Nc2nc(-c3nn(Cc4ccccc4F)c4ncccc34)nc(N3CCC(F)(F)C3)c21 [Example 76] = 0.03 μm
17. CC1(C)C(=O)Nc2nc(-n3nc(Cc4ccccc4F)c4ccccc43)nc(O)c21 [Example 22] = 0.03 μm
18. CC1(C)C(=O)Nc2nc(-c3nn(Cc4ncccc4F)c4ncc(F)cc34)nc(N3CC(F)C3)c21 [Example 15] = 1.0 μm
19. COCCCNc1nc(-c2nn(Cc3ccccc3F)c3ncccc23)nc2c1C(C)(C)C(=O)N2 [Example 74] = 0.01 μm
20. CC1(C)C(=O)Nc2nc(-c3nn(Cc4ccccc4F)c4ncccc34)nc(N[C@@H]3CCCNC3=O)c21 [Example 81] = 0.03 μm
21. CC1(C)C(=O)Nc2nc(-c3nn(Cc4ccccc4F)c4ncccc34)nc(N3CCC(C(F)(F)F)C3)c21 (stereo not drawn) [Example 33] = 0.3 μm
22. C[C@@H](Nc1nc(-c2nn(Cc3ccccc3F)c3ncc(F)cc23)nc2c1C(C)(C)C(=O)N2)C1CC1 [Example 88] = 0.1 μm
23. Cc1cc(C)n(-c2nc(-c3nn(Cc4ccccc4F)c4ncccc34)nc3c2C(C)(C)C(=O)N3)n1 [Example 23] = 0.1 μm
24. Cc1cc(Nc2nc(-c3nn(Cc4ccccc4F)c4ncccc34)nc3c2C(C)(C)C(=O)N3)nn1C [Example 50] = 0.1 μm
25. CC1(C)C(=O)Nc2nc(-c3nn(Cc4ccccc4F)c4ncccc34)nc(NCCn3ccnn3)c21 [Example 47] = 0.1 μm
26. COCCN(C)c1nc(-c2nn(Cc3ccccc3F)c3ncccc23)nc2c1C(C)(C)C(=O)N2 [Example 75] = 0.03 μm
27. CC1(C)C(=O)Nc2nc(-c3nn(Cc4ccccc4F)c4ncccc34)nc(OCC3CC3)c21 [Example 113] = 0.1 μm
28. CC1(C)C(=O)Nc2nc(-c3nn(Cc4ccccc4F)c4ncc(F)cc34)nc(NC(C3CC3)C3CC3)c21 [Example 9] = 0.1 μm
29. CC1(C)C(=O)Nc2nc(-c3nn(Cc4ccccc4F)c4ncccc34)nc(-n3cccc(F)c3=O)c21 [Example 24] = 0.1 μm
30. CC1(C)C(=O)Nc2nc(-c3nn(Cc4ccccc4F)c4ncccc34)nc(NCc3ccccc3)c21 [Example 83] = 0.03 μm
